runDescription: Clearance in human liver microsomes at 1 uM incubated up to 60 mins by LC-MS/MS method
Format: ADME, microsome

{"smi": "C[C@H]1CN(C2COC2)CCN1c1cnc(Nc2cc(-c3ccnc(N4CCn5c(cc6c5CC(C)(C)C6)C4=O)c3CO)cn(C)c2=O)cn1", "CLhep predicted at 1 µM, mL/min/kg": 12}
{"smi": "Cn1cc(-c2cncc(N3CCn4c(cc5c4CCCC5)C3=O)c2CO)cc(Nc2ccc(N3CCN(C4COC4)CC3)cn2)c1=O", "CLhep predicted at 1 µM, mL/min/kg": 7.9}
{"smi": "Cn1cc(-c2ccnc(N3CCn4c(cc5c4CCCC5)C3=O)c2CO)cc(Nc2ccc(N3CCN(C4COC4)CC3)cn2)c1=O", "CLhep predicted at 1 µM, mL/min/kg": 8.1}
{"smi": "Cn1cc(-c2ccnc(N3CCn4c(cc5c4CC(C)(C)C5)C3=O)c2CO)cc(Nc2ccc(N3CCN(C4CCOCC4)CC3)cn2)c1=O", "CLhep predicted at 1 µM, mL/min/kg": 14}
{"smi": "C[C@H]1CN(C)CCN1c1ccc(Nc2cc(-c3cc(F)cc(N4CCn5c(cc6c5CCCC6)C4=O)c3CO)cn(C)c2=O)nc1", "CLhep predicted at 1 µM, mL/min/kg": 14}
{"smi": "Cn1cc(-c2ccnc(N3CCn4c5c(c(F)c4C3=O)CCCC5)c2CO)cc(Nc2ccc(N3CCN(C4COC4)CC3)cn2)c1=O", "CLhep predicted at 1 µM, mL/min/kg": 8.1}

====

targetOrSystem: JAK3 (Homo sapiens)
Sequence (P52333 whole entry): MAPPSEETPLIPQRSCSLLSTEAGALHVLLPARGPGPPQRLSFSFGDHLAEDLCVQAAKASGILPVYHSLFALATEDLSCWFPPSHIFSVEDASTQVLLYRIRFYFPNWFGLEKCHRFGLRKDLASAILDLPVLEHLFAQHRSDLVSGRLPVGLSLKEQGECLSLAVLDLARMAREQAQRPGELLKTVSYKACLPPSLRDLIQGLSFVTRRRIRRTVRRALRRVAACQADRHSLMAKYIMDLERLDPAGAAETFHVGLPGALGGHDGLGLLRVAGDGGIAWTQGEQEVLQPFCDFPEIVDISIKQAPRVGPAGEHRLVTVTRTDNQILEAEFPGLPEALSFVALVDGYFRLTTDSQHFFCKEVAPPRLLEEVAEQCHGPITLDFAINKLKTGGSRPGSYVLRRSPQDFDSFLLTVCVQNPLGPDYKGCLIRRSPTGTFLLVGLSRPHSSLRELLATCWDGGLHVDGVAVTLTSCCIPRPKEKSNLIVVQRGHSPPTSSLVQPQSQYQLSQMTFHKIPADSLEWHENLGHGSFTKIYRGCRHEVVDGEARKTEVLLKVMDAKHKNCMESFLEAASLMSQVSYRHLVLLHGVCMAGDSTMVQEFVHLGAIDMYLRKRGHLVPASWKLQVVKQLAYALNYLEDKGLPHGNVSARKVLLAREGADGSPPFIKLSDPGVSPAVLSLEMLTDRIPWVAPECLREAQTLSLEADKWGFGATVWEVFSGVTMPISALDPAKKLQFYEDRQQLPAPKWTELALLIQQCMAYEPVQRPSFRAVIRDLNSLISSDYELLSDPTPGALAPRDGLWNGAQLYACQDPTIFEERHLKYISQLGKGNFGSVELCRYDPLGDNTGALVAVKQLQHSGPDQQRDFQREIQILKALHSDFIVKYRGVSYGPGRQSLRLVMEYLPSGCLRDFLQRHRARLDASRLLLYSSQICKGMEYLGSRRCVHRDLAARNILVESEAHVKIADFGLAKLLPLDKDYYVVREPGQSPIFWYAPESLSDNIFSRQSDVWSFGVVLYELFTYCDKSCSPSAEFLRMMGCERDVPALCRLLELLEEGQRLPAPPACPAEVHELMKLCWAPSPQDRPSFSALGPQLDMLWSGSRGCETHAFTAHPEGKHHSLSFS
runDescription: Inhibition of recombinant human catalytic GST-tagged JAK3 expressed in baculovirus at 1 uM by Z'-LYTE assay
As shown below, each of these compounds has a reported inhibition at 1 µM value.
quantity: inhibition at 1 µM

{"compound": "Cc1c(-c2c(F)cc(C(N)=O)c3[nH]c4c(c23)CC[C@@H](C(C)(C)O)C4)cccc1-n1c(=O)c2cccc(F)c2n(C)c1=O", "recordedMeasurement": "-2%"}
{"compound": "CC#CC(=O)N1CC[C@@H](n2c(=O)n(-c3ccc(Oc4ccccc4)cc3)c3c(N)ncnc32)C1 [TIRABRUTINIB]", "recordedMeasurement": "-7%"}
{"compound": "C=CC(=O)Nc1cccc(Nc2nc(Nc3ccc(OCCOC)cc3)ncc2F)c1 [SPEBRUTINIB]", "recordedMeasurement": "89%"}
{"compound": "C=CC(=O)N1CCC(CNc2ncnc(N)c2-c2ccc(Oc3ccccc3)cc2)CC1 [EVOBRUTINIB]", "recordedMeasurement": "0%"}
{"compound": "C=CC(=O)N1CCC[C@@H](n2nc(-c3ccc(Oc4ccccc4)cc3)c3c(N)ncnc32)C1 [IBRUTINIB]", "recordedMeasurement": "80%"}
{"compound": "CC#CC(=O)N1CCC[C@H]1c1nc(-c2ccc(C(=O)Nc3ccccn3)cc2)c2c(N)nccn12 [ACALABRUTINIB]", "recordedMeasurement": "-3%"}
{"compound": "C[C@H]1CN(C2COC2)CCN1c1ccc(Nc2cc(-c3ccnc(N4CCn5c(cc6c5CC(C)(C)C6)C4=O)c3CO)cn(C)c2=O)nc1 [FENEBRUTINIB]", "recordedMeasurement": "5%"}

====

As shown below, each of these molecules has a reported inhibition at 1 µM value.
targetOrSystem: EGFR (Homo sapiens)
Sequence (P00533 whole entry): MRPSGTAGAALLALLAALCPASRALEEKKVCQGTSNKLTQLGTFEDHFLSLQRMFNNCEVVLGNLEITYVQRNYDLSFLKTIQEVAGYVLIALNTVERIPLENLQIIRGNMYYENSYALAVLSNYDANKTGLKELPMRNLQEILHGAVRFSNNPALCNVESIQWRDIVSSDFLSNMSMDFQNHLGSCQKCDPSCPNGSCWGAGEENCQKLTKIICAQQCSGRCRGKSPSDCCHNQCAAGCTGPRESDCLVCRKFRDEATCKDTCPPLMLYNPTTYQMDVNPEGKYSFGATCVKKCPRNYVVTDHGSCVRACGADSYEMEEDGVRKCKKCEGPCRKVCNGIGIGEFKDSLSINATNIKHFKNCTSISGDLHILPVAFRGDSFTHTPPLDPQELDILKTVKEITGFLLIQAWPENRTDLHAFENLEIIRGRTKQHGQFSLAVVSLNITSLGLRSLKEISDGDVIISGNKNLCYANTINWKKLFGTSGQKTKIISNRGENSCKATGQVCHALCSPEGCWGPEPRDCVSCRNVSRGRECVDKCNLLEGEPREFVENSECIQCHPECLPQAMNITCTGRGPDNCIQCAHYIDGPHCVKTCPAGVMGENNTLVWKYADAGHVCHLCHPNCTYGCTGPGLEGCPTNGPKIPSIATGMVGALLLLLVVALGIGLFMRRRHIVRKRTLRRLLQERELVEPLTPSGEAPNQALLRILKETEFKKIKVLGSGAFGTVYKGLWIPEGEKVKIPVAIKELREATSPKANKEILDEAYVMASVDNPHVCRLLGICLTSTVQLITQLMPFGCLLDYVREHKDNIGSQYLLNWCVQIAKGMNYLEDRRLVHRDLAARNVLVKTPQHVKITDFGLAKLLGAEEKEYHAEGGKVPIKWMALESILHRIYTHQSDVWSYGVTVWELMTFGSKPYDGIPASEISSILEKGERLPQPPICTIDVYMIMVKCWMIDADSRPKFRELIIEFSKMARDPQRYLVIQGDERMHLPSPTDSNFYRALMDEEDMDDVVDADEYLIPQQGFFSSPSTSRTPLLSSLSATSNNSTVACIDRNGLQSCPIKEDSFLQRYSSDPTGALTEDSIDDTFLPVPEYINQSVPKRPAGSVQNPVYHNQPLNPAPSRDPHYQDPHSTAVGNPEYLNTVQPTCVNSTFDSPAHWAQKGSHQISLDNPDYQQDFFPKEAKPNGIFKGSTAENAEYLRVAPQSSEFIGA
runDescription: Inhibition of recombinant human cytoplasmic GST-tagged EGFR expressed in baculovirus at 1 uM by Z'-LYTE assay

{"smi": "Cc1c(-c2c(F)cc(C(N)=O)c3[nH]c4c(c23)CC[C@@H](C(C)(C)O)C4)cccc1-n1c(=O)c2cccc(F)c2n(C)c1=O", "inhibition at 1 µM": "7%"}
{"smi": "CC#CC(=O)N1CCC[C@H]1c1nc(-c2ccc(C(=O)Nc3ccccn3)cc2)c2c(N)nccn12", "inhibition at 1 µM": "-1%"}
{"smi": "CC#CC(=O)N1CC[C@@H](n2c(=O)n(-c3ccc(Oc4ccccc4)cc3)c3c(N)ncnc32)C1", "inhibition at 1 µM": "-2%"}
{"smi": "C=CC(=O)N1CCC(CNc2ncnc(N)c2-c2ccc(Oc3ccccc3)cc2)CC1", "inhibition at 1 µM": "1%"}
{"smi": "C=CC(=O)Nc1cccc(Nc2nc(Nc3ccc(OCCOC)cc3)ncc2F)c1", "inhibition at 1 µM": "34%"}
{"smi": "C[C@H]1CN(C2COC2)CCN1c1ccc(Nc2cc(-c3ccnc(N4CCn5c(cc6c5CC(C)(C)C6)C4=O)c3CO)cn(C)c2=O)nc1", "inhibition at 1 µM": "-7%"}

Just for reference, ChEMBL document CHEMBL4020831 is where these values come from.
